From: the array DNA melting data of Ke et al. (doi:10.1101/2024.01.08.574731)

# protocolDescription: folding enthalpy; higher = less favourable; fluorescence melt of hairpins on a sequencing array, two-state fit
# testContext: sodium 0.088 M
readoutName: folding enthalpy (kcal/mol)
# output: bare number, implied unit kcal/mol

Reported folding enthalpy ( GTTAGTGGAAACGTTAAC ((((..(....)..)))) ) = -10.1

Reported folding enthalpy ( GGCATACCGAAAGGTGCC (((..(((....)))))) ) = -39.5

Reported folding enthalpy ( GTATTGCGAAAGCATAC (((.(((....)))))) ) = -12.2

Reported folding enthalpy ( GCCCCTCGAAAGAGGGC (((.(((....)))))) ) = -13

Reported folding enthalpy ( GTAGAGCGAAAGCTTAC (((.(((....)))))) ) = -12.8

Reported folding enthalpy ( GGATTCCGAAAGGAGTCC (((.(((....))).))) ) = -41.6

Reported folding enthalpy ( GGGTCATCGAAAGATCCC (((..(((....)))))) ) = -20.3

Reported folding enthalpy ( CGGCCCCGGAAACGGCCG (((..(((....)))))) ) = -31.9

Reported folding enthalpy ( GGCAGAGGAAACTCTGCC (((((((....))))))) ) = -40.2

Reported folding enthalpy ( GGTCAACGAAAGTTACC (((.(((....)))))) ) = -20.6

Reported folding enthalpy ( GTTAGACGAAAGTCCAAC (((.(((....))).))) ) = -17.3

Reported folding enthalpy ( GGTAAGTCGAAAGACACC (((..(((....)))))) ) = -17.9
